Data provenance is ChEMBL document CHEMBL3885881.

species on record: Rattus norvegicus; assay: DrugMatrix - Regimen: Daily Repeat; format: toxicity, organism-based, Sprague-Dawley; set-up: regimen Daily Repeat, gender Male, age 6-8 weeks; conditions: in vivo, po, 0 mg/kg, 72 h, tissue Blood, route oral GAVAGE, dose level Control, time 3 day, vehicle 100 % SALINE
QUANTITY KIND: PLATELET COUNT (x10E3/uL)

- Oc1ccccc1O [CATECHOL]: 1244.83
- Cc1cc(CC(=O)O)n(C)c1C(=O)c1ccc(Cl)cc1 [ZOMEPIRAC]: 1244.83
- CC(=O)OCC(CCn1cnc2cnc(N)nc21)COC(C)=O [FAMCICLOVIR]: 1202.17
- CCCc1nn(C)c2c(=O)[nH]c(-c3cc(S(=O)(=O)N4CCN(C)CC4)ccc3OCC)nc12: 1202.17

---

species on record: Rattus norvegicus; assay: DrugMatrix - Regimen: Daily Repeat; assay type: toxicity, organism-based, Sprague-Dawley; set-up: regimen Daily Repeat, gender Male, age 6-8 weeks; details: in vivo, po, 0 mg/kg, 120 h, tissue Plasma, route oral GAVAGE, dose level Control, time 5 day, vehicle 100 % SALINE
QUANTITY KIND: ALKALINE PHOSPHATASE (u/L)

* CC(=O)OCC(CCn1cnc2cnc(N)nc21)COC(C)=O | 300.33
* Oc1ccccc1O | 319
* Cc1cc(CC(=O)O)n(C)c1C(=O)c1ccc(Cl)cc1 [ZOMEPIRAC] | 319
* CCCc1nn(C)c2c(=O)[nH]c(-c3cc(S(=O)(=O)N4CCN(C)CC4)ccc3OCC)nc12 | 300.33

---

species on record: Rattus norvegicus; test: DrugMatrix - Regimen: Daily Repeat; format: toxicity, organism-based, Sprague-Dawley; parameters: regimen Daily Repeat, gender Male, age 6-8 weeks; details: in vivo, po, 0 mg/kg, 72 h, tissue Plasma, route oral GAVAGE, dose level Control, time 3 day, vehicle 100 % WATER
QUANTITY KIND: SODIUM

* Nc1ccc(S(=O)(=O)Nc2nccs2)cc1 [SULFATHIAZOLE] | 144.87 MEQ/L
* O=P1(N(CCCl)CCCl)NCCCO1 (configuration not stated) [CYCLOPHOSPHAMIDE ANHYDROUS] | 144.12 MEQ/L
* Cc1c(N(C)CS(=O)(=O)[O-])c(=O)n(-c2ccccc2)n1C.[Na+] [DIPYRONE SODIUM] | 141.53 MEQ/L
* CCCCCCCCCCCCCCCC[n+]1ccccc1.[Br-] | 145.2 MEQ/L
* CC[C@H]1OC(=O)[C@H](C)[C@@H](O[C@H]2C[C@@](C)(OC)[C@@H](O)[C@H](C)O2)[C@H](C)[C@@H](O[C@@H]2O[C@H](C)C[C@H](N(C)C)[C@H]2O)[C@](C)(O)C[C@@H](C)CN(C)[C@H](C)[C@@H](O)[C@]1(C)O [AZITHROMYCIN] | 141.54 MEQ/L
* CC(C)(C)NC[C@H](O)COc1nsnc1N1CCOCC1 [TIMOLOL] | 144.87 MEQ/L
* CCN(CC)CC#CCOC(=O)C(O)(c1ccccc1)C1CCCCC1 (configuration not stated) [OXYBUTYNIN] | 141.53 MEQ/L

---

species on record: Rattus norvegicus; assay: DrugMatrix - Regimen: Daily Repeat; format: toxicity, organism-based, Sprague-Dawley; parameters: regimen Daily Repeat, gender Male, age 6-8 weeks; settings: in vivo, po, 0 mg/kg, 72 h, tissue Blood, route oral GAVAGE, dose level Control, time 3 day, […]
QUANTITY KIND: BASOPHIL (%)

• CC(=O)Nc1nnc(S(N)(=O)=O)s1 [ACETAZOLAMIDE] = 0
• CC(C)Cc1ccc(CC(=O)O)cc1 [IBUFENAC] = 0
• CC(CCc1ccc(O)cc1)NCCc1ccc(O)c(O)c1 (centres undefined) [DOBUTAMINE] = 0.4
• CS(=O)(=O)OCCCCOS(C)(=O)=O [BUSULFAN] = 0
